Field: IC50. Provide a value for each of the molecules that follow.
- TARGET: AVP-V1 sites (Rattus norvegicus, UniProt P30560)
- Construct: crude membrane preparation of male rat liver (AVP-V1 sites); from tissue; host or cells: male rat liver, crude membranes
- Sequence (P30560 whole entry): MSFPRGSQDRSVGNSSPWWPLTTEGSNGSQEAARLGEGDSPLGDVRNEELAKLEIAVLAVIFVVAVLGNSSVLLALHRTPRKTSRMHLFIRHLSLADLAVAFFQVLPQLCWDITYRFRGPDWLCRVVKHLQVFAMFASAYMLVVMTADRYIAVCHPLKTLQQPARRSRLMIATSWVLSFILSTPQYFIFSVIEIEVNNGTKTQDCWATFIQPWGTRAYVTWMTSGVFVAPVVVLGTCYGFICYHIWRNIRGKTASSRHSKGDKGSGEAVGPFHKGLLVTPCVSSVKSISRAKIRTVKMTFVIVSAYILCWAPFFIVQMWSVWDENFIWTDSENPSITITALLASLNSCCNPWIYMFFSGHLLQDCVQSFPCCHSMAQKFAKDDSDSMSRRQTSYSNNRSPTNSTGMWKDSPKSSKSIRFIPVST
- ASSAY PROCEDURE: [^3 H]AVP binding to crude membrane preparation of male rat liver (AVP-V1 sites)
- EXPERIMENTAL PARAMETERS: Receptor Binding Results IC50 (nM) [^3 H]-AVP-V1
Numbered stars: 1 amine (or outer) side, 2 acyl side, 3 side chain; on linkers, the order of the positions; unused ones are H or OH. Square brackets hold non-standard residues; d marks the D form. Peptide text beside a SMILES is read from it. dPip(4-aza,4-Cbz) = O=C(O)[C@H]1CN(C(=O)OCc2ccccc2)CCN1; X2 = O=C(OCc1ccccc1)N1CCN([*:1])[C@H](C(=O)[*:2])C1; d2Nal = N[C@H](Cc1ccc2ccccc2c1)C(=O)O; dNMeF = CN[C@H](Cc1ccccc1)C(=O)O; dPip = O=C(O)[C@H]1CCCCN1

Form field - read-out: IC50; system: AVP-V1 sites (Rattus norvegicus, UniProt P30560); submitted item: CC[C@H](C)[C@@H]1NC(=O)[C@@H](Cc2ccc3ccccc3c2)NC(=O)[C@@H]2CCCN2C(=O)[C@@H](Cc2c[nH]cn2)NC(=O)[C@@H]2CN(C(=O)OCc3ccccc3)CCN2C(=O)[C@H]2CCCCN2C1=O [Example 158] (cyclo(I[dPip][X2][dH]P[d2Nal])) > 1000 nM

Give IC50 (AVP-V1 sites (Rattus norvegicus, UniProt P30560)) of the following molecule: CC[C@H](C)[C@@H]1NC(=O)[C@@H](Cc2ccc3ccccc3c2)NC(=O)[C@@H]2CCCN2C(=O)[C@@H](Cc2c[nH]cn2)NC(=O)[C@H]2CN(C(=O)OCc3ccccc3)CCN2C(=O)[C@H]2CCCCN2C1=O [Example 160] (cyclo(I[dPip][dPip(4-aza,4-Cbz)][dH]P[d2Nal])) > 1000 nM

Request: IC50, test system AVP-V1 sites (Rattus norvegicus, UniProt P30560), entry CC[C@H](C)[C@@H]1NC(=O)[C@@H](Cc2ccccc2)NC(=O)[C@@H]2CCCN2C(=O)[C@@H](Cc2ccccc2)N(C)C(=O)[C@H](CO)NC(=O)[C@H]2CCCN2C1=O [Example 114] (cyclo(I[dP]S[dNMeF]P[dF])) > 10000 nM

AVP-V1 sites (Rattus norvegicus, UniProt P30560) / IC50 / CC[C@H](C)[C@@H]1NC(=O)[C@@H](Cc2c[nH]c3ccccc23)NC(=O)[C@@H]2CCCN2C(=O)[C@@H](Cc2ccccc2)N(C)C(=O)[C@H]2CN(C(=O)OCc3ccccc3)CCN2C(=O)[C@H]2CCCCN2C1=O [Example 91] (cyclo(I[dPip][dPip(4-aza,4-Cbz)][dNMeF]P[dW])) : value? > 10000 nM
